Hey, just so you know, these numbers are from PubChem BioAssay (NCI).

# Tested on: NCI-H460 lung
# testProtocol: NCI-60 one-dose screen, 48 h
# conditionInfo: 10 µM unless noted
# Procedure: Growth inhibition of the NCI-H460 human Non-Small Cell Lung tumor cell line is measured as a screen for anti-cancer activity. Cells are grown in 96 well plates and exposed to the test compound for 48 hours. Compounds are tested at a single concentration, which is 10^-5 M for most compounds. The reported endpoint is percent growth (GI% or GIPRCNT), where numbers from 0 - 100% represent growth inhibition, and numbers from -100% - 0 represent cell death. […]
This is part of a sample that, as a whole, favours compounds with a hit. Of some 83,000 tested, about 20% had one in any assay. Activity calls are given as the source filed them. Rule for the calls: active = growth percent below 10; inactive = the rest.
Possible outcomes: y for active, n for inactive

compound	classLabel
COC(=O)[C@]12CC[C@@H](C)[C@H](C)[C@@H]1C1=CC[C@@H]3[C@@]4(C)C[C@@H](OC(=O)c5ccco5)[C@H](O)[C@@](C)(CO)[C@@H]4[C@H](O)C[C@@]3(C)[C@]1(C)CC2	y
CCCCC1Nc2nc(SC)n(C)c(=O)c2CN(Cc2ccccc2)C1=O (stereo not given)	n
COc1ccc(-c2nn(-c3cccc(Cl)c3)cc2C2CC(c3ccccc3)=NN2C(C)=O)cc1 (stereo not given)	n
COc1ccc2nc(-c3ccc(-n4cncc4-c4ccc(OC)c(N)c4)cc3)sc2c1	n
O=C1Cc2cc(CCn3cncn3)c(Cl)cc2N1	n
